- Measured target: CYP24 (Homo sapiens)
- Construct: When the HPK1A-ras cells are 80-90% confluent, add 1 μL 10^−5 M 1,25(OH)2D3 to 1 mL medium; endogenous in cells
- Sequence (Q07973 36-514): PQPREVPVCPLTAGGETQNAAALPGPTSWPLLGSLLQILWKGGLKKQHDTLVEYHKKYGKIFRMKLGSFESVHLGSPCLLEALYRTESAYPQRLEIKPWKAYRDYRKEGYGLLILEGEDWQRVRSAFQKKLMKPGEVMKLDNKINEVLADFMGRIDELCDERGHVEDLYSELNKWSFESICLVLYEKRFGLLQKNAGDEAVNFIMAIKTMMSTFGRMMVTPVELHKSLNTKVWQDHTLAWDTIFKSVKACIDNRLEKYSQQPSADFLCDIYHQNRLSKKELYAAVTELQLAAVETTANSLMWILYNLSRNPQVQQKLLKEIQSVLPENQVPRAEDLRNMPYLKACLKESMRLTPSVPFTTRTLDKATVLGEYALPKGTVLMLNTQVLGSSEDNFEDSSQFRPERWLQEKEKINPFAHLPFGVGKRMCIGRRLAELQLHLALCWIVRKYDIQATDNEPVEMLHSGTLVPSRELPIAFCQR
- Procedure details: CYP24 enzyme assay (induced HPK1A-ras cells)
- Measurement context: [3H]-1,25(OH)2D3 substrate
pIC50: −log10 of the molar value.
Observed property: pIC50

Reference set (5 entries):
C=C1/C(=C\C=C2/CCC[C@]3(C)[C@@H]([C@H](C)CCS(=O)(=O)C(C)C)CC[C@@H]23)C[C@@H](O)C[C@@H]1O | 7.05
C=C1/C(=C\C=C2/CCC[C@]3(C)[C@@H]([C@H](C)CCS(=O)(=O)c4ccc(Cl)cc4)CC[C@@H]23)C[C@@H](O)C[C@@H]1O [I(e)] | 7.03
C=C1/C(=C\C=C2/CCC[C@]3(C)[C@@H]([C@H](C)CCS(=O)(=O)c4ccc(C)cc4)CC[C@@H]23)C[C@@H](O)C[C@@H]1O | 6.67
C=C1/C(=C\C=C2/CCC[C@]3(C)[C@@H]([C@H](C)CCS(=O)(=O)C(C)(C)C)CC[C@@H]23)C[C@@H](O)C[C@@H]1O | 6.66
C[C@H](CCS(=O)(=O)c1ccccc1)[C@H]1CC[C@H]2/C(=C/C=C3C[C@@H](O)C[C@H](O)C3)CCC[C@]12C | 6.80

[A] C=C1/C(=C\C=C2/CCC[C@]3(C)[C@@H]([C@H](C)CCS(=O)(=O)c4ccc(Cl)c(Cl)c4)CC[C@@H]23)C[C@@H](O)C[C@@H]1O
[B] C=C1/C(=C\C=C2/CCC[C@]3(C)C([C@H](C)CCSC(C)(C)C)=CC[C@@H]23)C[C@@H](O)C[C@@H]1O
I'm curious whether A or B has the smaller pIC50 number. Which is it? Lab note: record the label of whichever item you select. B
(B: 6.33, A: 7.04)

----------
- Measured target: UniProtKB O15528
- Procedure details: Assay of CYP1-alpha hydroxylase (transfected COS-1 cells)
- Measurement context: COS-1 cells transfected with CYP-1alpha hydroxylase cDNA, [3H-26,27]-25(OH)D3 substrate
pIC50: −log10 of the molar value.
Observed property: pIC50

Reference set, count: 3
C=C1/C(=C\C=C2/CCC[C@]3(C)[C@@H]([C@H](C)CCS(=O)(=O)c4ccccc4)CC[C@@H]23)C[C@@H](O)C[C@@H]1O | < 5.00
C=C1/C(=C\C=C2/CCC[C@]3(C)[C@@H]([C@H](C)CCS(=O)(=O)C(C)(C)C)CC[C@@H]23)C[C@@H](O)C[C@@H]1O | < 5.00
C=C1/C(=C\C=C2/CCC[C@]3(C)[C@@H]([C@H](C)CCS(=O)(=O)c4ccc(C)cc4)CC[C@@H]23)C[C@@H](O)C[C@@H]1O | < 6.00

Attention now shifts to the item below.
// sample `C=C1/C(=C\C=C2/CCC[C@]3(C)[C@@H]([C@H](C)CCS(=O)(=O)c4ccc(Cl)c(Cl)c4)CC[C@@H]23)C[C@@H](O)C[C@@H]1O` , its pIC50 was < 6.00

----------
- Measured target: CYP27B1 (UniProt O15528)
- Procedure details: Assay of CYP1-alpha hydroxylase (transfected COS-1 cells)
- Measurement context: COS-1 cells transfected with CYP-1alpha hydroxylase cDNA, [3H-26,27]-25(OH)D3 substrate
Observed property: IC50 (µM)

C=C1/C(=C\C=C2/CCC[C@]3(C)C([C@H](C)CCSC(C)(C)C)=CC[C@@H]23)C[C@@H](O)C[C@@H]1O | 8.46
C=C1/C(=C\C=C2/CCC[C@]3(C)[C@@H]([C@H](C)CCS(=O)(=O)C(C)C)CC[C@@H]23)C[C@@H](O)C[C@@H]1O | 9.2
